Biological target: MUS81/EME1 (Homo sapiens, UniProt Q96NY9)
Sequence (Q96NY9 whole entry, species assumed): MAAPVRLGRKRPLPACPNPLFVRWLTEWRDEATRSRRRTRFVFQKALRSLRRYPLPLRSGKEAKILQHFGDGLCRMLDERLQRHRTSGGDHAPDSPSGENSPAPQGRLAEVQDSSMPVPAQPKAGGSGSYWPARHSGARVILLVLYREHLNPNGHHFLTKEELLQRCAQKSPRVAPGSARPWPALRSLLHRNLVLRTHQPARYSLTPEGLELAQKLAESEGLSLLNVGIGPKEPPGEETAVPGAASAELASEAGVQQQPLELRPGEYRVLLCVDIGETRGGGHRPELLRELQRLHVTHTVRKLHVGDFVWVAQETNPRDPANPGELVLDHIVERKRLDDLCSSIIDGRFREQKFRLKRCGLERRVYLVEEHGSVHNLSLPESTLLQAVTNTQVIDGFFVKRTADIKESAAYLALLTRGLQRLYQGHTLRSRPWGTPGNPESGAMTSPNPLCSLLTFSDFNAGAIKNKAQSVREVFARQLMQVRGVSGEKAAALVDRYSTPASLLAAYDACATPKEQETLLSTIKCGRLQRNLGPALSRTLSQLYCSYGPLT
Sequence (Q96AY2 whole entry partner, species assumed): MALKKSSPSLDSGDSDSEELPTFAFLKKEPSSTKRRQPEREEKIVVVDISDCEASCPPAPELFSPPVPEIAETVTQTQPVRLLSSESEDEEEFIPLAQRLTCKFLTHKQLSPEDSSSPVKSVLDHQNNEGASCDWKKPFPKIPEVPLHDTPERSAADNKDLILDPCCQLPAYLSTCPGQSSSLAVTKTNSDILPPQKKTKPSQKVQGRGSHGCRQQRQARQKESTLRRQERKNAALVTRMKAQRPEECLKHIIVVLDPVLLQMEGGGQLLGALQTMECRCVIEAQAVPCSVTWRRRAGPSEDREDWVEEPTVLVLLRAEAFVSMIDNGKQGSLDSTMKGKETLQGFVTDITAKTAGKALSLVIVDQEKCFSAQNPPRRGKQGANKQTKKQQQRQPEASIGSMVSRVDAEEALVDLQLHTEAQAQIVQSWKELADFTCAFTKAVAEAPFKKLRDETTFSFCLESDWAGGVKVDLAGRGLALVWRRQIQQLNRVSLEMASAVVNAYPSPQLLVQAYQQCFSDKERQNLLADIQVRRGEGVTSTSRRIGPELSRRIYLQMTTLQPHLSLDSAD
Assay: Nuclease inhibition assay, MUS81/EME1 (3′ flap fluorescent DNA substrate, gel readout)
Details: 5 nM enzyme, 5 nM 3′ flap substrate, 15 min at 30° C.
Field: IC50. Provide a value for each of the compounds that follow.

Prompt line: In one line, give reported IC50 of the entry Nc1c(-c2nc3ccccc3[nH]2)nnc2cc(-c3ccccc3)nn12 [Preparative Example 5C] .
Response line: < 50 µM

Prompt line: In one line, give reported IC50 of the entry CC(C)(C)c1cc2nnc(-c3nc4ccccc4[nH]3)c(N)n2n1 [Preparative Example 5F] .
Response line: < 50 µM

Prompt line: In one line, give reported IC50 of the entry Nc1c(-c2nc3ccccc3[nH]2)nnc2cc(-c3cccc4ccccc34)nn12 [Preparative Example 5K] .
Response line: < 10 µM

Entry source: patent US9969741B2
